Documented pIC50 across a set of compounds
assay_notes: Inhibition of Src-transfected 3T3 cell proliferation
pIC50: −log10 of the molar value.

smiles_data | pIC50
COc1ccc(Cl)c(Nc2ncnc3cc(OCCCN4CCOCC4)cc(OC(C)C)c23)n1 | 7.52
COc1cnc(Cl)c(Nc2ncnc3cc(OCCN4CCN(C(C)=O)CC4)cc(OC(C)C)c23)n1 | 7.15
COc1cnc(Cl)c(Nc2ncnc3cc(OCCCN4CCOCC4)cc(OC4CCOCC4)c23)c1 | 6.85
COc1ccc(Cl)c(Nc2ncnc3cc(OCCN4CCOCC4)cc(OC(C)C)c23)n1 | 6.92
COc1ccc(Cl)c(Nc2ncnc3cc(OCCCN4CCOCC4)cc(OC4CCOCC4)c23)n1 | 7.15
COc1cnc(Cl)c(Nc2ncnc3cc(OCCCN4CCOCC4)cc(OC(C)C)c23)c1 | 6.82
COc1ccc(Cl)c(Nc2ncnc3cc(OCCCN4CCN(C(C)=O)CC4)cc(OC(C)C)c23)n1 | 7.70
COc1ccc(Cl)c(Nc2ncnc3cc(OCCCN4CCCC4)cc(OC(C)C)c23)n1 | 7.15
COc1cc(Nc2ncnc3cc(OCCCN4CCOCC4)cc(OC(C)C)c23)c(Cl)cn1 | 6.46

----------
Documented pIC50 across a set of compounds
assay_notes: Inhibition of Src-transfected 3T3 cell proliferation
pIC50: −log10 of the molar value.
readout_kind: pIC50

smiles_data | reading
COc1ccc(Cl)c(Nc2ncnc3cc(OCCN4CCN(C(C)=O)CC4)cc(OC(C)C)c23)n1 | 7.22
COc1ccc(Cl)c(Nc2ncnc3cc(OCCN4CCCC4)cc(OC(C)C)c23)n1 | 6.92
COc1ccc(Cl)c(Nc2ncnc3cc(OCCCN4CCN(C)CC4)cc(OC(C)C)c23)n1 | 7.22
COc1ccc(Cl)c(Nc2ncnc3cc(OCCCN4CCOCC4)cc(OC(C)C)c23)c1 | 6.82
